Where do these numbers come from? They come from patent US20020107404A1.

Overview of reported IC50 across a group of compounds:
Target: CDK2/CycE (Homo sapiens)
Construct: GST; purchased Dr. Dieter Marmé, Klinik für Tumorbiologie, Freiburg (external academic supplier); host or cells: baculovirus-infected Sf9 insect cells
Experiment: CDK2/CycE kinase assay
Type: biochemical
Conditions: comparison table; recombinant CDK2/CycE, histone IIIS substrate, 0.5 μm ATP

{"compound": "CSc1ccc2c(c1)/C(=C1/Nc3ccccc3C1=O)C(=O)N2 [Example 1.0, 5-Methylsulfanyl-indirubin]", "IC50, nM": 300}
{"compound": "CSc1ccc2c(c1)/C(=C1/Nc3ccccc3/C1=N\\O)C(=O)N2 [Example 4.0]", "IC50, nM": 20}
{"compound": "C[S+]([O-])c1ccc2c(c1)/C(=C1/Nc3ccccc3C1=O)C(=O)N2 (stereo not drawn) [Example 2.0, 5-Methylsulfinyl-indirubin]", "IC50, nM": 80}
